Test: Quantitative High-Throughput drug screen in 47 multiple myeloma cell lines against the NCATS MIPE library collection: MOLP8_DSMZ cell viability assay (AID 1918977); also: nearly all actives have a fitted effect of over 45% in size
Conditions: MOLP8 myeloma viability, CellTiter-Glo ATP luminescence, 48 h; series mostly up to 45.8 µM
Records with an inconclusive call do not appear. Calls of active or inactive are those of the source. Calls follow the shape of the dose curve; as a rule, active = well fitted cell-killing curve with a large enough effect; inconclusive = small, poorly fitted or top-dose-only effect, or effect the other way; inactive = no such curve, though single readings can be large or run the other way.
Labels: active, inactive

# compound, cat
measured = [
    ("O=C1C(Cl)=C(NCCN2CCOCC2)C(=O)c2ncccc21", "active"),
    ("Cc1ccc(Nc2cc(-c3cccc(N4C(=O)c5ccccc5C4=O)c3)ncn2)cc1NS(C)(=O)=O", "active"),
    ("CN(C)Cc1ccc(-c2nc3cccc4c3n2CCNC4=O)cc1", "active"),
    ("CCOC(=O)C1=C(N)Oc2ccc(Br)cc2C1C(C#N)C(=O)OCC (stereo not given)", "active"),
    ("Cc1nnc(C(C)C)n1C1C[C@H]2CC[C@@H](C1)N2CC[C@H](NC(=O)C1CCC(F)(F)CC1)c1ccccc1 (stereo not given in full)", "inactive"),
]

---

Assay: qHTS of pediatric cancer cell lines to identify multiple opportunities for drug repurposing: Primary screen for SJ-GBM2 cells (AID 1347091)
Conditions: SJ-GBM2 viability, CellTiter-Glo luminescence, 48 h; series mostly up to 46 µM
Inconclusive results are not listed. The source made the active and inactive calls. The call rests on the fitted dose curve; in most records, active means well fitted cell-killing curve with a large enough effect; inconclusive means small, poorly fitted or top-dose-only effect; inactive means no such curve, though single readings can be large or run the other way.
Classes used: active, inactive

# sampleSmiles, cat
records = [
    ("O=c1cc(CN2CCOCC2)occ1OCCCCCSc1ccnc2cc(C(F)(F)F)ccc12", "active"),
    ("O=C(O)c1cc(O)c2c(c1)C(=O)c1cccc(O)c1C2=O", "inactive"),
    ("CC1(C)CCC(CN2CCN(c3ccc(C(=O)NS(=O)(=O)c4ccc(NCC5CCOCC5)c([N+](=O)[O-])c4)c(Oc4cnc5[nH]ccc5c4)c3)CC2)=C(c2ccc(Cl)cc2)C1", "active"),
    ("CC[C@H]1OC(=O)[C@H](C)C(=O)[C@H](C)[C@@H](O[C@H]2O[C@H](C)C[C@H](N(C)C)[C@@H]2O)[C@](C)(OC)C[C@@H](C)C(=O)[C@H](C)[C@H]2N(CCCCn3cnc(-c4cccnc4)c3)C(=O)O[C@]12C", "inactive"),
    ("NC(=O)c1ccc2nc(-c3ccc(Oc4ccc(Cl)cc4)cc3)[nH]c2c1", "inactive"),
    ("C[C@]12CC[C@@H]3c4ccc(O)cc4CC[C@H]3[C@H]1C[C@@H](O)[C@H]2O", "inactive"),
    ("CCCNC(=O)NS(=O)(=O)c1ccc(Cl)cc1", "inactive"),
    ("COc1cc2nc(-c3ccc(N4CCN(C)CC4)cc3)nc(NCCN3CCOCC3)c2cc1OC", "active"),
]

---

Test system: UISO
Experiment: qHTS assay to identify novel small-molecules to repurpose for Merkel cell carcinoma treatment (AID 1296009); also: nearly all actives have a fitted effect of over 60% in size
Conditions: MCC and control cell lines, CellTiter-Glo viability, 72 h; series mostly up to 46 µM
Results filed as inconclusive are left out. The source made the active and inactive calls. Calls come from the whole dose curve; as a rule, active = well fitted inhibition curve with a large enough effect; inconclusive = small, poorly fitted or top-dose-only effect; inactive = flat fitted curve, though single readings scatter.
Possible outcomes: 1 = active, -1 = inactive

# sampleSmiles, measuredTarget, cat
data = [
    ("CC/C(=C(\\c1ccccc1)c1ccc(OCCN(C)C)cc1)c1ccccc1", "UISO", 1),
    ("COc1cc(Nc2ncc(F)c(Nc3ccc4c(n3)NC(=O)C(C)(C)O4)n2)cc(OC)c1OC", "UISO", -1),
    ("NC(=O)c1cnc(-c2ccc(C3(N)CCC3)cc2)c(-c2ccccc2)c1", "UISO", -1),
    ("CCC(CC)[C@H](NC(C)=O)[C@@H]1[C@H](O)[C@@H](C(=O)O)C[C@@H]1N=C(N)N", "UISO", -1),
    ("O=C1NC(=O)C(=Cc2ccc(-c3ccc(F)cc3)o2)S1", "UISO", -1),
]

---

Test system: MCC-13
Assay: qHTS assay to identify novel small-molecules to repurpose for Merkel cell carcinoma treatment (AID 1296009); also: nearly all actives have a fitted effect of over 60% in size
Details: MCC and control cell lines, CellTiter-Glo viability, 72 h; series mostly up to 46 µM
Results filed as inconclusive are left out. Calls of active or inactive are those of the source. Calls follow the shape of the dose curve; as a rule, active = well fitted inhibition curve with a large enough effect; inconclusive = small, poorly fitted or top-dose-only effect; inactive = flat fitted curve, though single readings scatter.
Possible outcomes: active, inactive

# molecule, cat
data = [
    ("COc1ccc2c3c1OC1C[C@@H](O)C=C[C@@]31CCN(C)C2 (stereo partly drawn)", "inactive"),
    ("COc1ccc(-c2oc3c(CC=C(C)C)c(OC4O[C@H](CO)[C@@H](O)[C@H](O)[C@@H]4O)cc(O)c3c(=O)c2OC2O[C@@H](C)[C@H](O)[C@@H](O)[C@@H]2O)cc1 (stereo partly drawn)", "inactive"),
    ("C[C@@H]1CCN(C(=O)CC#N)C[C@H]1N(C)c1ncnc2[nH]ccc12", "inactive"),
    ("Cc1cccc(C)c1OCC(C)N (stereo not drawn)", "inactive"),
    ("O=C1C[C@@H](c2ccc(O)cc2)Oc2cc(O)cc(O)c21", "inactive"),
    ("O=C(O)c1ccc(-c2cc3cccnc3c(-c3ccc4nonc4c3)n2)cc1", "inactive"),
    ("O=C(NCc1ccncc1)C12C[C@H]3C[C@@H](C1)CC(c1ccc(Cl)cc1)(C3)C2", "inactive"),
    ("CN1[C@@H]2CCC[C@@H]1CC(NC(=O)c1nn(C)c3ccccc13)C2 (stereo partly drawn)", "inactive"),
    ("CC(C)(C)NC(=O)Nc1cccc(Nc2ncc(F)c(NC(C)(C)CO)n2)c1", "inactive"),
    ("O=C(O)c1ccc(-c2c[nH]c3ncc(-c4ccccc4)cc23)cc1C1CCCC1", "inactive"),
    ("CC(C)(Cc1ccc2ccccc2c1)NC[C@@H](O)COc1cccc(Cl)c1C#N", "inactive"),
    ("CC(C)(C)C(=O)Oc1ccc2c(c1)nc(NC(=O)c1cccc([N+](=O)[O-])c1)n2CCCO", "inactive"),
    ("CS(=O)c1ccc(-c2nc(-c3ccc(F)cc3)c(-c3ccncc3)[nH]2)cc1 (stereo not drawn)", "inactive"),
    ("O=C1NCC2(CCN(CCc3ccccc3)CC2)O1", "inactive"),
    ("COC1CCC(N(C(=O)C2CCC(C)CC2)c2cc(C3=CCCCC3)sc2C(=O)O)CC1 (stereo not drawn)", "inactive"),
    ("CC=CCC(C)C(O)C1C(=O)NC(CC)C(=O)N(C)CC(=O)N(C)C(CC(C)C)C(=O)NC(C(C)C)C(=O)N(C)C(CC(C)C)C(=O)NC(C)C(=O)NC(C)C(=O)N(C)C(CC(C)C)C(=O)N(C)C(CC(C)C)C(=O)N(C)C(C(C)C)C(=O)N1C (stereo not drawn)", "inactive"),
    ("O=C(O)c1cc(O)c2c(c1)C(=O)c1cccc(O)c1C2=O", "inactive"),
    ("CC=C(C)C(=O)O[C@H]1C(C)=C[C@]23C(=O)[C@@H](C=C(CO)[C@@H](O)[C@]12O)[C@H]1[C@@H](C[C@H]3C)C1(C)C", "inactive"),
    ("CC(C)NCC(O)COc1cccc2[nH]ccc12 (stereo not drawn)", "inactive"),
    ("CN(C[C@@H]1COCCO1)S(=O)(=O)Nc1ccc2ccc3ncc(-c4cnn(C)c4)cc3c(=O)c2c1", "inactive"),
    ("C=C1C(=O)OC2C=C(C)CCC=C(C)CCC12 (stereo not drawn)", "inactive"),
    ("O=C(Nc1cc(Cl)cc2c1[nH]c1cnccc12)c1cccnc1", "inactive"),
    ("Cn1c(N2CCCCS2(=O)=O)nc(C(=O)NCc2ccc(F)cc2)c(O)c1=O", "inactive"),
    ("Cc1c(O)cccc1C(=O)N[C@@H](CSc1ccccc1)[C@H](O)CN1C[C@H]2CCCC[C@@H]2C[C@@H]1C(=O)NC(C)(C)C", "inactive"),
    ("NC(=O)[C@@H](CCC(F)(F)F)N(Cc1ccc(-c2ncon2)cc1F)S(=O)(=O)c1ccc(Cl)cc1", "inactive"),
    ("c1ccc2c(-c3cnn4cc(-c5ccc(N6CCNCC6)cc5)cnc34)ccnc2c1", "active"),
    ("CN(C)CCC(c1ccccc1)c1ccccn1 (stereo not drawn)", "inactive"),
    ("CC#CCn1c(N2CCC[C@@H](N)C2)nc2c1c(=O)n(Cc1nc(C)c3ccccc3n1)c(=O)n2C", "inactive"),
    ("COCCOc1nc(-c2ccc(Cl)c(Cl)c2)n(-c2ccc(NC(=O)CCl)cc2)n1", "inactive"),
    ("O=C(O)C(O)Cc1ccc(O)c(O)c1 (stereo not drawn)", "inactive"),
    ("CC1CCC(C(=O)N(c2cc(C#CC(C)(C)C)sc2C(=O)O)C2CCC(O)CC2)CC1 (stereo not drawn)", "inactive"),
    ("C[N+](C)(C)CCCCCC[N+](C)(C)C", "inactive"),
    ("CC(C)(C)COc1ccc(-n2cc(C(=O)O)cn2)cc1C#N", "inactive"),
    ("COC[C@@H](c1ccc(C(F)(F)F)cc1)N1CCN(C2(C)CCN(C(=O)c3c(C)ncnc3C)CC2)C[C@H]1C", "inactive"),
    ("COc1cccc([C@@H](C)NCCCc2ccccc2Cl)c1", "inactive"),
    ("CC(=O)N(C)C1(c2ccccc2)CCN(CCC[C@]2(c3ccc(Cl)c(Cl)c3)CCCN(C(=O)c3ccccc3)C2)CC1", "inactive"),
    ("COc1ccc(-n2c(C)c([N+](=O)[O-])c3ccc(O)cc32)cc1", "inactive"),
    ("CCCCCN(C)CCC(O)(P(=O)(O)O)P(=O)(O)O", "inactive"),
]
